Provenance of the data: PubChem BioAssay (Tox21)

assay: qHTS RealTime-Glo MT Cell Viability Assay in HepG2 cells - 0 hour (AID 1224889); conditions: RealTime-Glo luminescence; series mostly up to 76.8 µM; also: nearly all actives have a fitted effect of over 50% in size
Inconclusive results are not listed. Calls of active or inactive are those of the source. Calls follow the shape of the dose curve; as a rule, active = well fitted cell-killing curve with a large enough effect in the repeat runs; inconclusive = weak or mixed curves, or effect the other way; inactive = flat fitted curve, though single readings scatter.
Possible outcomes: True for active, False for inactive

Molecule	Label
CNC(=O)Oc1ccc(N(C)C)c(C)c1	False
COc1cc(C[C@@H](C)N)c(OC)cc1C	False
O=C(CCCN1CCC(n2c(=O)[nH]c3ccccc32)CC1)c1ccc(F)cc1	False
C[C@H]1CCC[C@H](O)CCCCCc2cc(O)cc(O)c2C(=O)O1	False
CCC(Cl)[N+](=O)[O-] (stereo not drawn)	False
CSc1ccc(C(=O)C(C)(C)N2CCOCC2)cc1	False
CC(C)CP(=S)(S)CC(C)C	False
ClC(Cl)(Cl)C(Cl)(Cl)Cl	False
COc1ccc2c(c1OC)CN1CCc3cc4c(cc3C1C2)OCO4 (stereo not drawn)	False
ClCC(Cl)Cl	False
O=C(NCO)NCO	False
O=[N+]([O-])c1cccc(O)c1	False
O=[N+]([O-])c1ccc(CBr)cc1	False
O=P(O)(Oc1ccccc1)Oc1ccccc1	False
CCCCP(CCCC)CCCC	False
CC1CCC(=O)O1 (stereo not drawn)	False
O=[N+]([O-])c1cc(Cl)c(Cl)c(Cl)c1	False
COCC(=O)N(c1c(C)cccc1C)N1CCOC1=O	False
N#Cc1c(Cl)cccc1Cl	False
CCOP(=S)(OCC)Oc1cc(-c2ccccc2)on1	False
C(CCOCC1CO1)COCC1CO1 (stereo not drawn)	False
CCOc1nc(C(Cl)(Cl)Cl)ns1	False
C=CCC1=C(C)[C@@H](OC(=O)[C@@H]2[C@@H](C=C(C)C)C2(C)C)CC1=O	False
C[C@]1(O)CC[C@H]2[C@@H]3CCC4=CC(=O)CC[C@]4(C)[C@@]3(F)[C@@H](O)C[C@@]21C	True
Clc1ccccc1N1CCNCC1	False
O=C(O)c1cccc(Cl)c1	False
Cc1cc(C)nc(Nc2ccccc2)n1	False
CCOP(=S)(OCC)Oc1nc(Cl)n(C(C)C)n1	False
CN1C(=S)CN=C(c2ccccc2)c2cc(Cl)ccc21	False
CCOP(=S)(OCC)SCSc1ccc(Cl)cc1	False
CCCCOC(=O)[C@@H](C)Oc1ccc(Oc2ccc(C#N)cc2F)cc1	False
Cc1nnc2n1-c1sc(CCC(=O)N3CCOCC3)cc1C(c1ccccc1Cl)=NC2	False
Cc1cc(C)c(C(=O)P(=O)(C(=O)c2c(C)cc(C)cc2C)c2ccccc2)c(C)c1	False
COc1cc(OC)nc(Sc2cccc(Cl)c2C(=O)O)n1	False
C#C[C@]1(O)C=C[C@H]2[C@@H]3CCC4=CC(=O)CC[C@@H]4[C@H]3CC[C@@]21CC	False
CCN(Cc1ccc(Cl)nc1)/C(=C/[N+](=O)[O-])NC	False
Nc1n[nH]c(N)n1	False
CN1CCC(O)(c2ccc(F)cc2)C(C(=O)c2ccc(F)cc2)C1 (stereo not drawn)	False
Cc1ccccc1CO[C@@H]1C[C@@]2(C(C)C)CC[C@]1(C)O2	False
CC(C)(C)C(=O)C(Oc1ccc(Cl)cc1)n1cncn1 (stereo not drawn)	False
CCOP(=S)(Oc1cnc(C(C)(C)C)nc1)OC(C)C (stereo not drawn)	False
Nc1cc(Cl)ccc1O	False
OCCSCSCCO	False
